FYI, the data here is from the supplement of paper PMC6755084.

B1: F1*; the commonest letter at each place (parent)
chain: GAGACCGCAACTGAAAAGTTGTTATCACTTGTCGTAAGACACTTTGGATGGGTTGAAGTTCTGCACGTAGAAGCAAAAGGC

Variants of: B1
experimental.details: fraction ligated after 30 min (ligated reads / total reads); higher = more ligase activity
assay.setup: with F1*sub RNA substrate (template-directed ligation), 42 °C
Entries annotated with measured fraction ligated
// no unit string in output, number only

# count of solved cases: 3
G38A A48G	0.796
C26G T29C	0.749
A39C T43G	0.79

Ask: Request the reported fraction ligated associated with G46A A56T
Result: 0.645

Ask: Request the reported fraction ligated associated with C26T G38T
Result: 0.478

Ask: Request the reported fraction ligated associated with T29A G47T
Result: 0.473
